Data origin, for the record: patent US20040198716A1

STUDY_SYSTEM: human recombinant caspase-3 (Homo sapiens, UniProt P42574)
Construct: purchased Sigma
Sequence (P42574 29-175 limits assumed): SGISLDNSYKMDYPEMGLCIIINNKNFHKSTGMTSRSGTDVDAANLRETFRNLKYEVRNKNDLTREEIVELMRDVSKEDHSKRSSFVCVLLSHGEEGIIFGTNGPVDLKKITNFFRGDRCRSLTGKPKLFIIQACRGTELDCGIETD
Sequence (P42574 176-277 limits assumed): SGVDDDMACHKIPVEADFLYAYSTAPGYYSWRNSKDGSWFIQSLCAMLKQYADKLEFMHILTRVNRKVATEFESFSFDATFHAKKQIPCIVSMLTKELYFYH
EXPERIMENT_SUMMARY: In vitro high throughput caspase-3 assay
Format: biochemical
RECORDED_CONDITIONS: percentage of the positive control; 20-250 μM test compound; lower = better inhibition, negative = better than control caspase inhibitor
# Percent Activity listing for each entry below
Your answer should be a plain number; it is taken to be in %.

{"SMILES_STR": "CC1=CC(=O)c2ccccc2C1=O", "PROPERTY": "Percent Activity", "QUANTITY_UNIT": "%", "DATA_VALUE": 1.32}

Q. Respond only with Percent Activity recorded for COc1c(C)c([N+](=O)[O-])c(O)c2c1C(=O)c1ccccc1C2=O
A. 51.3817

Q. Respond only with Percent Activity recorded for O=C(COc1cc(O)c2c(=O)cc(-c3ccccc3)oc2c1)OCc1ccccc1
A. 54.1256

Q. Respond only with Percent Activity recorded for O=C1c2ccccc2C(=O)c2c(O)ccc(O)c21
A. 45.72

---

STUDY_SYSTEM: human recombinant caspase-3 (Homo sapiens)
EXPERIMENT_SUMMARY: In vitro high throughput caspase-3 assay
RECORDED_CONDITIONS: fixed substrate concentration of 55 μM; inhibitors 75 to 0.067 μM in duplicate
pIC50: −log10 of the molar value.
Class assignment keyed on pIC50, ranges I (below 4), II (4 to below 5), III (5 or more)

Illustrative cases are given below, each with its answer.
{"COMPOUND": "O=C1C=CC(=NNc2cc([N+](=O)[O-])cc([N+](=O)[O-])c2)c2cccc(O)c21", "CLASS_LABEL": "III"}
{"COMPOUND": "NC(=O)NN=C1C=CC(=O)c2c(O)cccc21", "CLASS_LABEL": "III"}
{"COMPOUND": "COc1c(C)c([N+](=O)[O-])c(O)c2c1C(=O)c1ccccc1C2=O", "CLASS_LABEL": "II"}
{"COMPOUND": "O=C(O)c1c(O)c2c(c(O)c1Cl)C(=O)c1ccccc1C2=O", "CLASS_LABEL": "III"}
{"COMPOUND": "O=C1C=CC(=O)c2ccccc21", "CLASS_LABEL": "III"}
{"COMPOUND": "N#CC1=C(N)SC(N)=C(C#N)C1c1cccc(F)c1", "CLASS_LABEL": "I"}
{"COMPOUND": "O=C1C(Br)=C(Br)C(=O)c2c(O)c(Br)c(Br)c(O)c21", "CLASS_LABEL": "III"}
{"COMPOUND": "O=C1c2ccccc2C(=O)c2c(O)c(O)cc(O)c21", "CLASS_LABEL": "III"}
{"COMPOUND": "O=C1C=CC(=NNc2ccc([N+](=O)[O-])cc2[N+](=O)[O-])c2cccc(O)c21", "CLASS_LABEL": "I"}
{"COMPOUND": "O=C(O)CN(CC(=O)O)Cc1cc2c(c(O)c1O)C(=O)c1ccccc1C2=O", "CLASS_LABEL": "II"}

Q. Could you place O=C1C(Cl)=C(Cl)C(=O)c2ccccc21 in its proper category? Many thanks.
A. III

Q. Could you place Cc1cc(C(=O)NN)c2cc(Br)ccc2n1 in its proper category? Many thanks.
A. I

Q. Could you place O=C(O)C1Cc2c([nH]c3ccccc23)C(c2ccncc2)N1 (centres unmarked) in its proper category? Many thanks.
A. III

Q. Could you place O=C(COc1cc(O)c2c(=O)cc(-c3ccccc3)oc2c1)OCc1ccccc1 in its proper category? Many thanks.
A. I

Q. Could you place O=C1C=CC(=O)c2c(O)cccc21 in its proper category? Many thanks.
A. III

Q. Could you place O=C1C(Br)=CC(=O)c2c(O)cccc21 in its proper category? Many thanks.
A. II
